system: NCI-H1876 complex spheroid viability; experiment: Anticancer human tumor NCI-H1876 cell line growth inhibition [LSD1]; conditions: second compound 0.316 µM; first compound 0.03 µM; stronger effect = lower value;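 further: spheroids exposed to compounds for one week before readout; 100% = DMSO vehicle-treated spheroids so lower means fewer viable cells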
Please go through the items and note down their viability, T/C.
Numeric only. Scale: %

What measured viability, T/C goes with O=C(C=Cc1cccc(S(=O)(=O)Nc2ccccc2)c1)NO + NC1CC1c1ccc(-c2cccc(O)c2)cc1 ?
115

What measured viability, T/C goes with NS(=O)(=O)OCC1CC(n2ccc3c(NC4CCc5ccccc54)ncnc32)CC1O (centres undefined) + NC1CCC(NC2CC2c2ccccc2)CC1 ?
60.5

What measured viability, T/C goes with CCc1c2c(nc3ccc(O)cc13)-c1cc3c(c(=O)n1C2)COC(=O)[C@]3(O)CC + NC1CC1c1ccc(-c2cccc(O)c2)cc1 ?
0.19

What measured viability, T/C goes with Nc1ccccc1NC(=O)c1ccc(CNC(=O)OCc2cccnc2)cc1 + NC1CCC(NC2CC2c2ccccc2)CC1 ?
108

---

test system: NCI-H1876 complex spheroid viability; assay: Anticancer human tumor NCI-H1876 cell line growth inhibition [LSD1]; conditions: second compound 0.1 µM; first compound 0.0949 µM; stronger effect = lower value;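 further: spheroids exposed to compounds for one week before readout; 100% = DMSO vehicle-treated spheroids so lower means fewer viable cells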
VALUE KIND: viability, T/C

What measured viability, T/C goes with O=C(C=Cc1cccc(S(=O)(=O)Nc2ccccc2)c1)NO + NC1CC1c1ccc(-c2cccc(O)c2)cc1 ?
81.1%

What measured viability, T/C goes with COc1cc(C2c3cc4c(cc3C(OC3OC5COC(C)OC5C(O)C3O)C3COC(=O)C23)OCO4)cc(OC)c1O (centres undefined) + NC1CCC(NC2CC2c2ccccc2)CC1 ?
31.1%

What measured viability, T/C goes with Nc1ccn(C2OC(CO)C(O)C2(F)F)c(=O)n1 (centres undefined) + NC1CCC(NC2CC2c2ccccc2)CC1 ?
22.9%

What measured viability, T/C goes with COc1cc(C2c3cc4c(cc3C(OC3OC5COC(C)OC5C(O)C3O)C3COC(=O)C23)OCO4)cc(OC)c1O (centres undefined) + NC1CC1c1ccc(-c2cccc(O)c2)cc1 ?
20.1%

What measured viability, T/C goes with CCN(c1cc(-c2ccc(CN3CCOCC3)cc2)cc(C(=O)NCc2c(C)cc(C)[nH]c2=O)c1C)C1CCOCC1 + NC1CCC(NC2CC2c2ccccc2)CC1 ?
104%

What measured viability, T/C goes with CCN(c1cc(-c2ccc(CN3CCOCC3)cc2)cc(C(=O)NCc2c(C)cc(C)[nH]c2=O)c1C)C1CCOCC1 + NC1CC1c1ccc(-c2cccc(O)c2)cc1 ?
110%

What measured viability, T/C goes with O=C(C=Cc1cccc(S(=O)(=O)Nc2ccccc2)c1)NO + NC1CCC(NC2CC2c2ccccc2)CC1 ?
89.3%

What measured viability, T/C goes with Nc1ccccc1NC(=O)c1ccc(CNC(=O)OCc2cccnc2)cc1 + NC1CCC(NC2CC2c2ccccc2)CC1 ?
90.6%

What measured viability, T/C goes with CCc1c2c(nc3ccc(O)cc13)-c1cc3c(c(=O)n1C2)COC(=O)[C@]3(O)CC + NC1CC1c1ccc(-c2cccc(O)c2)cc1 ?
0.22%

---

test system: NCI-H1876 complex spheroid viability; test: Anticancer human tumor NCI-H1876 cell line growth inhibition [LSD1]; settings: second compound 3.16 µM; first compound 0.3 µM; stronger effect = lower value;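 further: spheroids exposed to compounds for one week before readout; 100% = DMSO vehicle-treated spheroids so lower means fewer viable cells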
Please go through the items and note down their viability, T/C.

Form field - read-out: viability, T/C; system: NCI-H1876 complex spheroid viability; submitted item: O=C(C=Cc1cccc(S(=O)(=O)Nc2ccccc2)c1)NO + NC1CC1c1ccc(-c2cccc(O)c2)cc1
18.4%

Form field - read-out: viability, T/C; system: NCI-H1876 complex spheroid viability; submitted item: O=C(C=Cc1cccc(S(=O)(=O)Nc2ccccc2)c1)NO + NC1CCC(NC2CC2c2ccccc2)CC1
29.8%

Form field - read-out: viability, T/C; system: NCI-H1876 complex spheroid viability; submitted item: CCN(c1cc(-c2ccc(CN3CCOCC3)cc2)cc(C(=O)NCc2c(C)cc(C)[nH]c2=O)c1C)C1CCOCC1 + NC1CC1c1ccc(-c2cccc(O)c2)cc1
97.5%
